Kindly supply the reported IC50 values for the records listed here.
Molecular target: Prostaglandin G/H synthase 1 (Ovis aries, UniProt P05979)
Sequence (P05979 whole entry): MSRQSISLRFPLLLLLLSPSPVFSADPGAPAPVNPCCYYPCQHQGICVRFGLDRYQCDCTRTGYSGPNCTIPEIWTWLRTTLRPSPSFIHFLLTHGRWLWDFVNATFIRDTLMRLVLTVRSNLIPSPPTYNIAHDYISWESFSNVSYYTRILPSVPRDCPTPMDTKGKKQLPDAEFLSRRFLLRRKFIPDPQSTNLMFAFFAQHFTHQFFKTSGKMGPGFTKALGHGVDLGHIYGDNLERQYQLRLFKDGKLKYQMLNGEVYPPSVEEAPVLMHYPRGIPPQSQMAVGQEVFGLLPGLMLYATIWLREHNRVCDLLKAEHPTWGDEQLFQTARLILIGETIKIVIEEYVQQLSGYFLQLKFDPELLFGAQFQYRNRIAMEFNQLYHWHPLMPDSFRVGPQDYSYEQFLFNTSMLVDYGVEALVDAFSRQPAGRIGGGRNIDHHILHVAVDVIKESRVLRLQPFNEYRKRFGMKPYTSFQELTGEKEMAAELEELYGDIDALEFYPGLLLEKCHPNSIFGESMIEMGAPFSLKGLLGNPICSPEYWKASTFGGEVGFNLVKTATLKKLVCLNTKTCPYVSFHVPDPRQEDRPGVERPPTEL
The response must be a number in µM with no trailing unit.

Can you look up the measured IC50 of Cc1nc2ccccc2c(-c2ccccc2)c1C(=O)/C=C/c1ccc(F)cc1 for me? 10.2

Can you look up the measured IC50 of Cc1nc2ccccc2c(-c2ccccc2)c1C(=O)/C=C/c1ccc(C(C)C)cc1 for me? 8.95

====

Test system: Mus musculus
Assay: Antidepressant activity in mouse assessed as reduction in duration of immobility at 30 mg/kg, ip relative to control
Assay type: functional
Kindly supply the reported inhibition in vivo at 30 mg/kg values for the records listed here.
Include the unit after the number when you answer.

Can you look up the measured inhibition in vivo at 30 mg/kg of Cc1nc2ccccc2c(-c2ccccc2)c1C(=O)/C=C/c1ccc(Cl)cc1Cl for me? 81%

Can you look up the measured inhibition in vivo at 30 mg/kg of Cc1nc2ccccc2c(-c2ccccc2)c1C(=O)/C=C/c1cccc(O)c1 for me? 80%

Can you look up the measured inhibition in vivo at 30 mg/kg of Cc1nc2ccccc2c(-c2ccccc2)c1C(=O)/C=C/c1cccc(F)c1 for me? 77.8%
